Test: Toxicity tests (LD50)
Details: mouse, in vivo; ip, DDY male mice
Value kind: LD50 (mg/kg)
Numbers only, in mg/kg.

### Prompt Item under review: O=NN(CCCl)C(=O)N[C@@H]1[C@H](O)[C@@H](CO)OC(O)[C@@H]1O (stereo partly shown) . Reported LD50?
### Response 65.5

---

Experiment: Toxicity tests (LD50)
Settings: mouse, in vivo; iv, DDY male mice
Value kind: LD50 (mg/kg)
Answers are plain numbers, in mg/kg.

### Prompt Requested read-out: LD50. Entry: O=NN(CCCl)C(=O)N[C@@H]1[C@H](O)[C@@H](CO)OC(O)[C@@H]1O (stereo partly shown)
### Response 80
